tested on: ETB receptor (guinea pig kidney crude receptor membrane fraction); experiment: ETB Radio Receptor Assay *2; assay type: binding; conditions: relative activity (Example 8 given as 100), 125I-endothelin-1, 37° C., 90 minutes
Non-standard residues stand in square brackets, D forms with d. Residues, ends and D or L forms follow the SMILES beside them. d(aIle) = CC[C@H](C)[C@@H](N)C(=O)O; NMeF = CN[C@@H](Cc1ccccc1)C(=O)O; NMeL = CN[C@@H](CC(C)C)C(=O)O; Aze = O=C(O)[C@@H]1CCN1; Sar = CNCC(=O)O
One threshold, 20, splits the recorded Binding Activity on ET Receptor (R. act.) ET8 *2 values: lower ones are Y, equal or higher ones are N.

COMPOUND: CC(C)C[C@@H]1NC(=O)[C@@H](CC(C)C)NC(=O)[C@H](CC(=O)O)NC(=O)[C@H](CC(C)C)N(C)C(=O)[C@@H](CC(=O)O)NC(=O)[C@@H](Cc2c[nH]c3ccccc23)NC1=O [Example 47] (cyclo(D[dL]L[dW][dD][NMeL]))
CATEGORY: Y
--
COMPOUND: CC(C)C[C@@H]1NC(=O)[C@H](Cc2c[nH]c3ccccc23)NC(=O)[C@@H](CC(=O)O)NC(=O)[C@@H](Cc2c[nH]c3ccccc23)NC(=O)[C@H](CC(C)C)NC(=O)[C@@H](CC(C)C)NC1=O [Example 35] (cyclo(L[dL]L[dW][dD]W))
CATEGORY: N
--
COMPOUND: CC(C)C[C@@H]1NC(=O)[C@@H](CC(C)C)NC(=O)[C@H](CC(=O)O)NC(=O)[C@H](CC(C)C)NC(=O)[C@@H](CC(=O)O)NC(=O)[C@@H](Cc2c[nH]c3ccccc23)NC1=O [Example 18] (cyclo(D[dL]L[dW][dD]L))
CATEGORY: Y
--
COMPOUND: CC(C)C[C@@H]1NC(=O)[C@@H](CC(C)C)NC(=O)[C@H](CC(=O)O)NC(=O)[C@@H]2CCN2C(=O)[C@@H](CC(=O)O)NC(=O)[C@@H](Cc2c[nH]c3ccccc23)NC1=O [Example 25] (cyclo([Aze]D[dL]L[dW][dD]))
CATEGORY: N
--
COMPOUND: CC(C)C[C@@H]1NC(=O)[C@@H](CC(C)C)NC(=O)[C@H](CC(=O)O)NC(=O)[C@H](Cc2ccccc2)N(C)C(=O)[C@@H](CC(=O)O)NC(=O)[C@@H](Cc2c[nH]c3ccccc23)NC1=O [Example 48] (cyclo(D[dL]L[dW][dD][NMeF]))
CATEGORY: Y
--
COMPOUND: CC(C)C[C@@H]1NC(=O)[C@@H](CC(C)C)NC(=O)[C@H](CC(=O)O)NC(=O)CN(C)C(=O)[C@@H](CC(=O)O)NC(=O)[C@@H](Cc2c[nH]c3ccccc23)NC1=O [Example 46] (cyclo(D[dL]L[dW][dD][Sar]))
CATEGORY: N
--
COMPOUND: CC(C)C[C@@H]1NC(=O)[C@@H](CC(C)C)NC(=O)[C@H](CCC(=O)O)NC(=O)[C@H](Cc2c[nH]c3ccccc23)NC(=O)[C@@H](CC(=O)O)NC(=O)[C@@H](Cc2c[nH]c3ccccc23)NC1=O [Example 34] (cyclo(E[dL]L[dW][dD]W))
CATEGORY: N
--
COMPOUND: CC[C@H](C)[C@H]1NC(=O)[C@H](CC(=O)O)NC(=O)[C@H](Cc2c[nH]c3ccccc23)NC(=O)[C@@H](CC(=O)O)NC(=O)[C@@H](Cc2c[nH]c3ccccc23)NC(=O)[C@H](CC(C)C)NC1=O [Example 51] (cyclo(D[d(aIle)]L[dW][dD]W))
CATEGORY: N

----------
# Binding Activity on ET Receptor (R. act.) ETA per entry
target: endothelin receptor A (ETA) (Sus scrofa); construct: A membrane fraction prepared from the porcine heart; from tissue; host or cells: porcine heart membrane fraction; assay: Assay of Affinity for Receptor (1): Binding Activity on ETA Receptor; set-up: key: relative binding activity; reference cyclic pentapeptide = 1.0; settings: specific activity, binding activity of cyclo[-D-Glu-Ala-D-aIle-Leu-D-Trp-] taken as 1.0; porcine heart membrane fraction, 125I-labeled endothelin-1, 25° C., 1 hour
Sequence (Q29010 21-427): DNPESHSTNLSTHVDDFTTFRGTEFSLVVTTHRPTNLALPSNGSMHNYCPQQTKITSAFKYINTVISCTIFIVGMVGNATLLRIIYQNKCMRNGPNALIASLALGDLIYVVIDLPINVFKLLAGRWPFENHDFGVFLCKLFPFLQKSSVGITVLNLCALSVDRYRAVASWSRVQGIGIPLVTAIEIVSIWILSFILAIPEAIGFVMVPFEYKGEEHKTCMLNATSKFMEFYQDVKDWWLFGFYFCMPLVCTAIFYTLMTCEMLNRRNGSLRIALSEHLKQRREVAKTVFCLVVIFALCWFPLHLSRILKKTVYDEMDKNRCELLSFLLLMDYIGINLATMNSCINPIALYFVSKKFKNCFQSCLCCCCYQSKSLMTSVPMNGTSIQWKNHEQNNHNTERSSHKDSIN
Non-standard residues stand in square brackets, D forms with d. Residues, ends and D or L forms follow the SMILES beside them. *: point of attachment. NMeW = CN[C@@H](Cc1c[nH]c2ccccc12)C(=O)O; d(aIle) = CC[C@H](C)[C@@H](N)C(=O)O; Hyp = O=C(O)[C@@H]1C[C@@H](O)CN1; X3 = O=C(Cc1c[nH]c2ccccc12)*; Orn = NCCC[C@H](N)C(=O)O; Sar = CNCC(=O)O
MEASURED_ATTRIBUTE: Binding Activity on ET Receptor (R. act.) ETA

COMPOUND: CC(C)C[C@@H]1NC(=O)[C@@H](CC(C)C)NC(=O)[C@H](CC(=O)O)NC(=O)[C@H](Cc2c[nH]c3ccccc23)N(C)C(=O)[C@@H](CC(=O)O)NC(=O)[C@@H](Cc2c[nH]c3ccccc23)NC1=O [Example 67] (cyclo(D[dL]L[dW][dD][NMeW]))
READOUT_VALUE: 9.1
//
COMPOUND: CC(C)C[C@@H]1NC(=O)[C@@H](CC(C)C)NC(=O)[C@H]2CCCN2C(=O)[C@H](CC(=O)O)NC(=O)[C@@H](CC(=O)O)NC(=O)[C@@H](Cc2c[nH]c3ccccc23)NC1=O [Example 31] (cyclo(D[dP][dL]L[dW][dD]))
READOUT_VALUE: 2.6
//
COMPOUND: CC[C@H](C)[C@H]1NC(=O)[C@H](CC(=O)O)NC(=O)[C@H](Cc2c[nH]c3ccccc23)NC(=O)[C@@H](CC(=O)O)NC(=O)[C@@H](Cc2c[nH]c3ccccc23)NC(=O)[C@H](CC(C)C)NC1=O [Example 51] (cyclo(D[d(aIle)]L[dW][dD]W))
READOUT_VALUE: 100
//
COMPOUND: CC(C)C[C@@H]1NC(=O)[C@@H](CC(C)C)NC(=O)[C@H](CC(=O)O)NC(=O)[C@H](CC(=O)O)NC(=O)[C@@H](CC(=O)O)NC(=O)[C@@H](Cc2c[nH]c3ccccc23)NC1=O [Example 16] (cyclo(DD[dL]L[dW][dD]))
READOUT_VALUE: 10
//
COMPOUND: CC(C)C[C@@H]1NC(=O)[C@@H](CC(C)C)NC(=O)[C@H](CC(=O)O)NC(=O)CN(C)C(=O)[C@@H](CC(=O)O)NC(=O)[C@@H](Cc2c[nH]c3ccccc23)NC1=O [Example 46] (cyclo(D[dL]L[dW][dD][Sar]))
READOUT_VALUE: 8.1
//
COMPOUND: CC(C)C[C@@H]1NC(=O)[C@@H](CC(C)C)NC(=O)[C@H](CC(=O)O)NC(=O)[C@H](CCCNC(=O)Cc2c[nH]c3ccccc23)NC(=O)[C@@H](CC(=O)O)NC(=O)[C@@H](Cc2c[nH]c3ccccc23)NC1=O [Example 82] (cyclo(D[dL]L[dW][dD][Orn](X3)))
READOUT_VALUE: 240
//
COMPOUND: CC(C)C[C@@H]1NC(=O)[C@@H](CC(C)C)NC(=O)[C@H](CC(=O)O)NC(=O)[C@@H]2C[C@@H](O)CN2C(=O)[C@@H](CC(=O)O)NC(=O)[C@@H](Cc2c[nH]c3ccccc23)NC1=O [Example 14, cyclo[-D-Asp-Hyp-Asp-D-Leu-Leu-D-Trp-]] (cyclo(D[dL]L[dW][dD][Hyp]))
READOUT_VALUE: 70
//
COMPOUND: CC(C)C[C@@H]1NC(=O)[C@@H](CC(C)C)NC(=O)[C@H](CC(=O)O)NC(=O)[C@H](Cc2c[nH]cn2)NC(=O)[C@@H](CC(=O)O)NC(=O)[C@@H](Cc2c[nH]c3ccccc23)NC1=O [Example 83] (cyclo(D[dL]L[dW][dD]H))
READOUT_VALUE: 15
//
COMPOUND: CC(C)C[C@@H]1NC(=O)[C@@H](C(C)C)NC(=O)[C@H](CC(=O)O)NC(=O)[C@H](Cc2c[nH]c3ccccc23)NC(=O)[C@@H](CC(=O)O)NC(=O)[C@@H](Cc2c[nH]c3ccccc23)NC1=O [Example 52] (cyclo(D[dV]L[dW][dD]W))
READOUT_VALUE: 75

----------
Target: endothelin receptor B (ETB) (Bos taurus, UniProt P28088)
Construct: A membrane fraction prepared from the bovine brain; from tissue; host or cells: bovine brain membrane fraction
Sequence (P28088 27-441): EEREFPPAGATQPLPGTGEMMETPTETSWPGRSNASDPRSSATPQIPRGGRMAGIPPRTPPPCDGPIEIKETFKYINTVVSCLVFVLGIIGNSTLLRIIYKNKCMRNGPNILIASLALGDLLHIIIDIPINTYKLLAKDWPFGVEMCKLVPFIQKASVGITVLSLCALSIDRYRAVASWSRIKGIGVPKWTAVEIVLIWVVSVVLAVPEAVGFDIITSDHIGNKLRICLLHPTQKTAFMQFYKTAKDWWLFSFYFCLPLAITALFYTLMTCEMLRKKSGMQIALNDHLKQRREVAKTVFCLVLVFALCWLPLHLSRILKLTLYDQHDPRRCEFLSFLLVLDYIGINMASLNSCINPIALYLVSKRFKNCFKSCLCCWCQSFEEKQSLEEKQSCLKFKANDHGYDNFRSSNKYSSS
Experiment: Assay of Affinity for Receptor (2): Binding Activity on ETB Receptor *1
Parameters: key: relative specific activity, Example 8 compound = 100
Conditions: specific activity, binding activity of the compound of Example 8 taken as 100; bovine brain membrane fraction, 125I labeled endothelin-1, 25° C., 1 hour
Procedure: Assay of Affinity for Receptor (2) . . . Binding Activity on ETB Receptor *1 A membrane fraction prepared from the bovine brain was diluted to 0.15 mg/ml by using a buffer solution for assay, and 100 μl of the resulting suspension of the membrane fraction was poured into each assay tube to use for assay. To this suspension of the membrane fraction was added 2 μl of 5 nM ^125 I labeled endothelin-1 solution. […]
Non-standard residues stand in square brackets, D forms with d. Residues, ends and D or L forms follow the SMILES beside them. d(aIle) = CC[C@H](C)[C@@H](N)C(=O)O; d2Thi = N[C@H](Cc1cccs1)C(=O)O; dPhg = N[C@@H](C(=O)O)c1ccccc1; Pip = O=C(O)[C@@H]1CCCCN1
MEASURED_ATTRIBUTE: Binding Activity on ET Receptor (R. act.) ET8 *1

MOLECULE: CC(C)C[C@@H]1NC(=O)[C@@H](Cc2cccs2)NC(=O)[C@H](CC(=O)O)NC(=O)[C@H](Cc2c[nH]c3ccccc23)NC(=O)[C@@H](CC(=O)O)NC(=O)[C@@H](Cc2c[nH]c3ccccc23)NC1=O [Example 50] (cyclo(D[d2Thi]L[dW][dD]W))
READOUT_VALUE: 350
--
MOLECULE: CC(C)C[C@@H]1NC(=O)[C@@H](CC(C)C)NC(=O)[C@H](CC(=O)O)NC(=O)[C@@H]2CCCN2C(=O)[C@@H](CC(=O)O)NC(=O)[C@@H](Cc2c[nH]c3ccccc23)NC1=O [Example 9, cyclo[-D-Asp-Pro-Asp-D-Leu-Leu-D-Trp-]] (cyclo(D[dL]L[dW][dD]P))
READOUT_VALUE: 140
--
MOLECULE: CC(C)C[C@@H]1NC(=O)[C@@H](CC(C)C)NC(=O)[C@H](CC(=O)O)NC(=O)[C@@H]2CCCCN2C(=O)[C@@H](CC(=O)O)NC(=O)[C@@H](Cc2c[nH]c3ccccc23)NC1=O [Example 26] (cyclo(D[dL]L[dW][dD][Pip]))
READOUT_VALUE: 38
--
MOLECULE: CC(C)C[C@@H]1NC(=O)[C@H](Cc2c[nH]c3ccccc23)NC(=O)[C@@H](CC(=O)O)NC(=O)[C@@H](Cc2c[nH]c3ccccc23)NC(=O)[C@H](CC(C)C)NC(=O)[C@@H](CC(C)C)NC1=O [Example 35] (cyclo(L[dL]L[dW][dD]W))
READOUT_VALUE: 52
--
MOLECULE: CC(C)C[C@@H]1NC(=O)[C@@H](c2ccccc2)NC(=O)[C@H](CC(=O)O)NC(=O)[C@H](Cc2c[nH]c3ccccc23)NC(=O)[C@@H](CC(=O)O)NC(=O)[C@@H](Cc2c[nH]c3ccccc23)NC1=O [Example 45] (cyclo(D[dPhg]L[dW][dD]W))
READOUT_VALUE: 74
--
MOLECULE: CC[C@H](C)[C@H]1NC(=O)[C@H](CC(=O)O)NC(=O)[C@H](Cc2c[nH]c3ccccc23)NC(=O)[C@@H](CC(=O)O)NC(=O)[C@@H](Cc2c[nH]c3ccccc23)NC(=O)[C@H](CC(C)C)NC1=O [Example 51] (cyclo(D[d(aIle)]L[dW][dD]W))
READOUT_VALUE: 210
--
MOLECULE: CC(C)C[C@H]1NC(=O)[C@H](CC(=O)O)NC(=O)[C@H](C)NC(=O)[C@@H](CC(=O)O)NC(=O)[C@@H](Cc2c[nH]c3ccccc23)NC(=O)[C@H](Cc2c[nH]c3ccccc23)NC1=O [Example 58] (cyclo(AD[dL]W[dW][dD]))
READOUT_VALUE: 6.7
